# reported normalized growth; entries follow
# Procedure Summary: chemical genetic growth profiling, strain panel (AID 1159580);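 note: tested at 20 µM; growth read once vehicle control cultures reached saturation at 30 °C; 1 = growth at the plate median or of vehicle wells; lower values mean less growth of the strain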
# Details: S. cerevisiae deletion strains, growth OD, locus YGL248W, strain PDE1, hits give low values
About 2,000 (36%) of roughly 5,500 compounds were called active. About 18% were inconclusive and are not listed. The list shows a part of the results.

Chem Smiles | normalized growth
O=C1O[C@@H](CO)[C@H](O)[C@@H](O)[C@@H]1O | 0.996
COc1cc(O)cc(/C=C/c2ccccc2)c1 | 0.748
NCc1ccc(S(N)(=O)=O)cc1 | 0.984

* * *

# reported normalized growth; entries follow
# Procedure Summary: chemical genetic growth profiling, strain panel (AID 1159580);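 note: tested at 20 µM; growth read once vehicle control cultures reached saturation at 30 °C; 1 = growth at the plate median or of vehicle wells; lower values mean less growth of the strain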
# Details: S. cerevisiae deletion strains, growth OD, locus YDR335W, strain msn5, hits give low values
About 2,000 (36%) of roughly 5,500 compounds were called active. Not shown: some 18% with an inconclusive outcome. The list shows a part of the results.

Compound | normalized growth
Nc1nc2ncc(CNc3ccc(C(=O)N[C@@H](CCC(=O)O)C(=O)O)cc3)nc2c(=O)[nH]1 | 0.997 (inactive)
CC1(C)O[C@@H]2CC3C4CCC5=CC(=O)C=C[C@]5(C)C4[C@@H](O)C[C@]3(C)[C@]2(C(=O)CO)O1 (stereo partly specified) | 1.01 (inactive)
NCc1ccc(S(N)(=O)=O)cc1 | 1.01 (inactive)
O=C(NC(Cc1cc(=O)[nH]c2ccccc12)C(=O)O)c1ccc(Cl)cc1 (stereo unspecified) | 1 (inactive)
O=C(O)CCCCC1SCC2NC(=O)NC21 (stereo unspecified) | 0.986 (inactive)
CC1(C)CC2C1CCC1(C)OC2(C)CCC1O (stereo unspecified) | 1.02 (inactive)
O=C(O)CCC(=O)c1ccc(-c2ccccc2)cc1 | 0.953 (inactive)
CCn1cc(C(=O)O)c(=O)c2cnc(N3CCCC3)nc21 | 1 (inactive)
CCCN(CCC)C(=O)C(CCC(=O)O)NC(=O)c1ccccc1 (stereo unspecified) | 0.981 (inactive)
CCN(CC)CCOC(=O)C(Cc1cccc2ccccc12)CC1CCCO1 (stereo unspecified) | 1.01 (inactive)
CC12CCC(CC1)C(C)(C)O2 | 0.985 (inactive)
CC1(C)O[C@@H]2[C@@H](CO[C@@]3(COS(N)(=O)=O)OC(C)(C)O[C@@H]23)O1 | 1.02 (inactive)
CCn1cc(C(=O)O)c(=O)c2cc3c(cc21)OCO3 | 0.984 (inactive)
NCCCCN=C(N)N | 1.03 (inactive)
CCOP(=S)(OCC)Oc1ccc2c(C)c(Cl)c(=O)oc2c1 | 0.975 (inactive)
CC1(C)CC2C1CCC1(C)OC1CCC2(C)O (stereo unspecified) | 1.04 (inactive)
COc1ccc2c(c1O)-c1c(OC)c(OC)cc3c1[C@H](C2)N(C)CC3 | 0.977 (inactive)
CCOC(=O)CCCCCCCCCCCCC1C=CCC1 (stereo unspecified) | 1 (inactive)
CC[C@]12CCCN3CCc4c(n(c5ccccc45)[C@](O)(C(=O)OC)C1)[C@@H]32 | 0.979 (inactive)
S=c1[nH]c2ccccc2s1 | 0.984 (inactive)
Cc1ccc(C(C)C)cc2c(C)ccc1-2 | 0.997 (inactive)

* * *

# reported normalized growth; entries follow
# Procedure Summary: chemical genetic growth profiling, strain panel (AID 1159580);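 note: tested at 20 µM; growth read once vehicle control cultures reached saturation at 30 °C; 1 = growth at the plate median or of vehicle wells; lower values mean less growth of the strain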
# Details: S. cerevisiae deletion strains, growth OD, locus YLR418C, strain cdc73, hits give low values
Hit rate of the full screen: of about 5,500 compounds, about 2,000 (36%) were called active. Inconclusive results (about 18%) are left out. This is one part of the list.

Compound | normalized growth
Nc1ccc(S(=O)(=O)Nc2nccs2)cc1 | 0.997 (inactive)
CN(Cc1cc(Br)cc(Br)c1N)C1CCCCC1 | 1.02 (inactive)
O=C1N=C(O)CN1/N=C\c1ccc(-c2ccc([N+](=O)[O-])cc2)o1 | 1.02 (inactive)
C[C@@H]1CC2C3CCC4=CC(=O)C=C[C@]4(C)[C@@]3(F)[C@@H](O)C[C@]2(C)[C@@]1(O)C(=O)COP(=O)(O)O (stereo partly specified) | 1.01 (inactive)
O=c1ccn([C@@H]2O[C@H](COP(=O)(O)OP(=O)(O)OP(=O)(O)O)[C@@H](O)[C@H]2O)c(=O)[nH]1 | 0.976 (inactive)
CCCSP(=O)(OCC)SCCC | 0.999 (inactive)
